# target: rHuman IGF-1 sR (insulin-like growth factor-1 soluble receptor) (human, UniProt P08069 31-932)
# test_details: ECL multispot (MSD) binding assay; antigen spotted on plate, Fab in solution;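 further: purified Fab bound for 1 h at 20 °C, detected with a TAG-labelled antibody, electrochemiluminescence compared with each well's blank, signal-to-blank ratio of at least 4 scored as hit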

binder	ECL signal
Fab VH1-46_IGHD6-6*01_IGHJ1*01 S102A/S103P/S104F/H111F (APFF) & L6_IGKJ1*01 S92C (Fab, V domains shown, Tested as Fab made in E. coli: VH cloned into Plasmid A (CH1, His6 and Flag tags), kappa VL into Plasmid C (kappa CL); also called APFF / S92C) VH: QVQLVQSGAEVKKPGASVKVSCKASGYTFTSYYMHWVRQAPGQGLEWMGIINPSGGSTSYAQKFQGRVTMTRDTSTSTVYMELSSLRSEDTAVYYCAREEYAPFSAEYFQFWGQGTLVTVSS VL: EIVLTQSPATLSLSPGERATLSCRASQSVSSYLAWYQQKPGQAPRLLIYDASNRATGIPARFSGSGSGTDFTLTISSLEPEDFAVYYCQQRCNWPPWTFGQGTKVEIKR	642
Fab VH1-46_IGHD6-6*01_IGHJ1*01 S102A/S103P/S104F/H111F (APFF) & L6_IGKJ1*01 S92V (Fab, V domains shown, Tested as Fab (CH1 with His6/Flag tags from Plasmid A; kappa CL from Plasmid C); also called APFF / S92V) VH: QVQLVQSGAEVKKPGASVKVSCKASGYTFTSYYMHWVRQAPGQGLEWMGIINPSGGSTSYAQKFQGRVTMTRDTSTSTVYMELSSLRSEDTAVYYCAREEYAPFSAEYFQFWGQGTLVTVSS VL: EIVLTQSPATLSLSPGERATLSCRASQSVSSYLAWYQQKPGQAPRLLIYDASNRATGIPARFSGSGSGTDFTLTISSLEPEDFAVYYCQQRVNWPPWTFGQGTKVEIKR	237
Fab VH1-46_IGHD6-6*01_IGHJ1*01 S102A/S103P/S104F/H111F (APFF) & L6_IGKJ1*01 S92N (Fab, V domains shown, Tested as Fab (CH1 with His6/Flag tags from Plasmid A; kappa CL from Plasmid C); also called APFF / S92N) VH: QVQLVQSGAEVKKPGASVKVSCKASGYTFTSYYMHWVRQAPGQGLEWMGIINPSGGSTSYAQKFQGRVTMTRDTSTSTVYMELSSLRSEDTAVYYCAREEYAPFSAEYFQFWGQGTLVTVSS VL: EIVLTQSPATLSLSPGERATLSCRASQSVSSYLAWYQQKPGQAPRLLIYDASNRATGIPARFSGSGSGTDFTLTISSLEPEDFAVYYCQQRNNWPPWTFGQGTKVEIKR	312
Fab VH1-46_IGHD6-6*01_IGHJ1*01 S102A/S103P/S104F/H111F (APFF) & L6_IGKJ1*01 S92M (Fab, V domains shown, Tested as Fab (CH1 with His6/Flag tags from Plasmid A; kappa CL from Plasmid C); also called APFF / S92M) VH: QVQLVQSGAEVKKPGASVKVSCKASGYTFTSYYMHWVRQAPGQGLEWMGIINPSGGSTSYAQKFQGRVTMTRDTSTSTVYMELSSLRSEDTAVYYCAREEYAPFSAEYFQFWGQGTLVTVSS VL: EIVLTQSPATLSLSPGERATLSCRASQSVSSYLAWYQQKPGQAPRLLIYDASNRATGIPARFSGSGSGTDFTLTISSLEPEDFAVYYCQQRMNWPPWTFGQGTKVEIKR	271

Source: patent US20120316071A1
